- Tested on: papillary muscle
- experiment notes: Isometric contraction force of electrically stimulated papillary muscles
- Assay type: cell-based, guinea pigs
- test parameters: Cavia porcellus; electrically stimulated (1 Hz)
pEC50: −log10 of the molar value.
reported property: pEC50

{"columns": ["molecule", "pEC50"],
 "data": [
  ["CSC(=S)n1ccnc1C [CRC5HCl]", "< 4.00"],
  ["Cc1nccn1C(=S)SCc1ccccc1 [CRC9HCl]", "< 4.00"]
]}

Answer with pEC50 of COc1ccc(CSC(=S)n2ccnc2)cc1 [CRC10HCl] measured for papillary muscle.
< 4.00

Answer with pEC50 of CCOC(=O)CCSC(=S)n1ccnc1 [CRC11HCl] measured for papillary muscle.
< 4.00

Answer with pEC50 of CC(=O)OCCSC(=S)n1ccnc1 [CRC13HCl] measured for papillary muscle.
4.11

Answer with pEC50 of S=C(SCc1ccccc1)n1ccnc1 [CRC8HCl] measured for papillary muscle.
4.59

Answer with pEC50 of CSC(=S)n1ccnc1.Cl [CRC1HCl] measured for papillary muscle.
4.11

Answer with pEC50 of COc1cc(CSC(=S)n2ccnc2)cc(OC)c1OC [CRC33] measured for papillary muscle.
< 4.00

Answer with pEC50 of CSC(=S)n1c(C)nc2ccccc21 [CRC4HCl] measured for papillary muscle.
< 4.00
